# target_entity: the molecule itself
# assay: AUC
endpoint: Kd (µM)
# number only, unit µM dropped from output

[in] // lookup Kd for LI Int CTD K362A (133-452) (domain or fragment, Listeria innocua (prophage), UniProt Q928V6 133-452, looked up) RDRMVMGKIKRIEAGLPLTTAKGRTFGYDVIDTKLYINEEEAKQLRLIYDIFEEEQSITFLQKRLKKLGFKVRTYNRYNNWLTNDLYCGYVSYKDKVHVKGIHEPIISEEQFYRVQEIFSRMGKNPNMNKESASLLNNLVVCSKCGLGFVHRRKDTVSRGKKYHYRYYSCKTYKHTHELEKCGNKIWRADKLEELIIDRVNNYSFASRNIDKEDELDSLNEKLKIEHAKAKRLFDLYINGSYEVSELDSMMNDIDAQINYYEAQIEANEELKKNKKIQENLADLATVDFNSLEFREKQLYLKSLINKIYIDGEQVTIEWL
[out] 45.2
